Test system: CD2F1 mice, L1210 leukemia ip, survival T/C
Assay: NCI In Vivo Anticancer Drug Screen. Data for tumor model L1210 Leukemia (intraperitoneal) in CD2F1 (CDF1) mice
Conditions: endpoint: mean survival time; dose: 100.0 mg/kg/injection; schedule: Q01DX009 (ip); vehicle: saline; higher = longer survival
Inconclusive results and toxic doses are left out.
Measurement kind: T/C

Past entries and their recorded results:
Compound	Measurement kind	Observed
CC(=O)N1CCCC2=C1CCCCCC2	T/C	113 % of control
C1CN2CN3CCN(CN1C3)C2	T/C	118 % of control
CC1=C(C)C(=O)O[C@@H]([C@](C)(O)[C@]2(O)CC[C@@]3(O)[C@@H]4C[C@H]5O[C@]56CC=CC(=O)[C@]6(C)[C@H]4CC[C@]23C)C1	T/C	93 % of control
C[S+](C)CC(=O)O	T/C	97 % of control
CC(C)N1CCC1CO (stereo unspecified)	T/C	94 % of control

Shifting focus to the compound that follows.
Reported T/C, compound N#CCCCN1CCOCC1 : ____
101 % of control

====

Give T/C for every item shown.
System: CD2F1 mice, L1210 leukemia ip, survival T/C
Test: NCI In Vivo Anticancer Drug Screen. Data for tumor model L1210 Leukemia (intraperitoneal) in CD2F1 (CDF1) mice
Settings: endpoint: mean survival time; dose: 400.0 mg/kg/injection; schedule: Q04DX003 (ip); vehicle: saline with Tween-80; higher = longer survival
Inconclusive results and toxic doses are left out.

Please supply T/C for each of the following items, keeping them in order.
1. N/C(=C\C(=O)c1ccccc1)c1ccccc1
2. CCOC(=O)Nc1cc(N)c2ncc(-c3ccc(Cl)cc3)nc2n1
3. COc1ccc(-c2[nH]c(=S)[nH]c(=O)c2CCO)cc1
4. Cc1ccc(S(=O)(=O)/C=C(\I)c2ccccc2)cc1
5. CCO/C=N/NC(=O)CNC(=O)C=[N+]=[N-]
6. CCCC(C)(COC(N)=O)COC(N)=O

1. 100 % of control
2. 95 % of control
3. 95 % of control
4. 93 % of control
5. 108 % of control
6. 96 % of control

Quick batch: T/C for everything below.
1. O=S(c1ccccc1)C1OC12CCCCC2 (stereo not given)
2. O=C(Nc1ccc(F)cc1)c1cccc(Cl)c1
3. Cc1ccc(N2OCCN(C(=O)c3ccc([N+](=O)[O-])cc3)C2c2ccccc2)cc1 (stereo not given)
4. COc1ccc(C2(C)N=NC(=C(c3ccccc3)c3ccccc3)O2)cc1 (stereo not given)

1. 97 % of control
2. 95 % of control
3. 98 % of control
4. 93 % of control

# per-item lookup of T/C; items listed below
1. c1ccc2c(c1)oc1ccccc12
2. CC(O)CN1CCN(CC(C)O)CC1.[I][Pt+2][I] (stereo not given)
3. OC(c1ccccc1)(c1ccccc1)c1ccccc1
4. N#C/C(=C\c1cccc2ccccc12)c1ccccc1
5. CC(C)C1=CCC2C(=C1)CCC1C(C)(C(N)=O)CCCC21C (stereo not given)

["92 % of control", "100 % of control", "98 % of control", "102 % of control", "90 % of control"]

====

System: CD2F1 mice, L1210 leukemia ip, survival T/C
Assay: NCI In Vivo Anticancer Drug Screen. Data for tumor model L1210 Leukemia (intraperitoneal) in CD2F1 (CDF1) mice
Conditions: endpoint: mean survival time; dose: 25.0 mg/kg/injection; schedule: Q01DX009 (ip); vehicle: saline with Tween-80; higher = longer survival
Inconclusive results and toxic doses are left out.
Measurement kind: T/C

Below are worked cases with known answers.
Molecule	T/C
c1cnc2c(c1)ccc1ncccc12	109 % of control
COC(=O)Nc1nc2ccc(C3(c4ccc(F)cc4)OCCO3)cc2[nH]1	106 % of control
COc1cc(OC)c(NC(=O)Oc2ccc(C(C)(C)C)cc2Br)cc1Cl	102 % of control

Please look at the items below and tell me T/C for each one, in order.
1. CCC(=O)c1ccc(O)c(O)c1
2. C[n+]1c(/C=N/NC(N)=S)ccc2ccccc21
3. Cc1cccc(C)c1N=NN(C)C
4. c1ccc2c3c([nH]c2c1)CN1CCNCC1C3 (centres undefined)
5. CCN(CC)CCN1CC2C3C=CC(C3)C2C1 (centres undefined)
6. Clc1[nH]nc2ccccc12

1. 95 % of control
2. 108 % of control
3. 118 % of control
4. 100 % of control
5. 97 % of control
6. 105 % of control

Values were extracted from PubChem BioAssay AID256.
